Reported z-score values for the following molecules.
# Assay explanation: A549 cell viability effects, profiling panel, calcein-AM fluorescence, 48 h, basal (AID 1162); note: test concentration not given here
# Assay setup: higher = more signal

Structure smiles string	z-score
CC(C)CN1CCc2nc(-c3ccccc3)c3c(c2C1)CO[C@@H](C)C3	1.2
CCN1C(=O)[C@H]2[C@H]3[C@H](O)[C@H](O)CC(=NO[C@@H]4O[C@H](COC(C)=O)[C@@H](OC(C)=O)[C@H](OC(C)=O)[C@H]4OC(C)=O)[C@@H]3CC[C@H]2C1=O	0.13
CON=C[C@@H](OC)[C@H](C)C=CCC(=O)OC	-0.0933
CC(C)=NOC[C@@H](O)[C@H]1O[C@@H]2OC(C)(C)O[C@@H]2[C@H]1O	0.112
CC(C)=NO[C@@H](C)c1cn([C@H](CO)Cc2ccccc2)nn1	0.308
Cc1cc(C)c(-c2cc([C@H](C)ON=C[C@@H](C)[C@H](OCc3ccccc3)C(C)C)on2)c(C)c1	0.66
O=C1[C@H]2[C@H]3[C@H](O)[C@H](O)CC(=NOC[C@@H](O)COCc4ccco4)[C@@H]3CC[C@H]2C(=O)N1c1cccc(Oc2ccccc2)c1	-0.382
CCOC(=O)NN=C1C[C@@H](O)[C@@H](O)[C@@H]2[C@@H]3C(=O)N(C[C@@H]4CCCO4)C(=O)[C@@H]3CC[C@H]12	-0.0295
C[C@@H]1C=CCC(=O)OC[C@H](C)C(=O)N[C@@H](Cc2ccccc2)C(=O)OC1	-0.88
